- ASSAYED SYSTEM: T1, Cynomolgus CD3εδ Fc heterodimer (Cy CD3ε Fc + CD3δ Fc-HIS) (cynomolgus, UniProt Q95LI5 22-117; Q95LI8 22-100)
- T1 construct: range 22-117;range 22-100; Made in HEK 293 cells with a heterologous signal peptide; also called Cy CD3εδ-Fc; cyno CD3εδ Fc; not shown: Fc; Fc followed by HIS tag
- T1 sequence (Q95LI5 22-117, stated change not applied, form in doubt, chain 1 of 2): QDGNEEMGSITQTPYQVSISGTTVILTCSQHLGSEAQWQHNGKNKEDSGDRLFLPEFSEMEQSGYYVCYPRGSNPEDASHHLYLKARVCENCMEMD
- T1 sequence (Q95LI8 22-100, stated change not applied, form in doubt, chain 2 of 2): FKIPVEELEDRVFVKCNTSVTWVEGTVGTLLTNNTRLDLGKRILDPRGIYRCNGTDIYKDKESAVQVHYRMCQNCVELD
- EXPERIMENT: BLI (Octet), CD3εδ Fc on AHC sensor, 100 nM Fab
METRIC: pKd
Interpret pKd as the negative base-10 log of the concentration measured in mol/L.

Before answering, review these 2 worked examples.
Antibody No. A001 (ADI-26906) Fab (Fab, V domains shown, Fab by papain digestion of the IgG1) VH: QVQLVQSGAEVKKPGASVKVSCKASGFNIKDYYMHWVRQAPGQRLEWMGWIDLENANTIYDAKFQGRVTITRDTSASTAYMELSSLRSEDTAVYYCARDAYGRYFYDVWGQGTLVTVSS VL: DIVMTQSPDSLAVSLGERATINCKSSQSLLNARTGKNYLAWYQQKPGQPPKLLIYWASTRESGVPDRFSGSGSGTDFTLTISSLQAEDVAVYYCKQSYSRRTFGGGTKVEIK    8.54
Antibody No. V012 (ADI-70329) Fab (Fab, V domains shown, Fab by papain digestion of the IgG1) VH: QVQLVQSGAEVKKPGASVKVSCKASGFNDKDYYMHWVRQAPGQRLEWIGWIDLENAETVYDAKFQDRVTITRDTSASTAYMELSSLRSEDTAVYYCARDAYGRYFYDVWGQGTLVTVSS VL: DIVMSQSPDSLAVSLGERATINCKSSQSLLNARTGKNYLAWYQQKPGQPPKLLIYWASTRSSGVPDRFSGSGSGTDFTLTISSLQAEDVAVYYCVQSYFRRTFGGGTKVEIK    8.79

Could you now consider this next binder?
Entry Antibody No. A002 (ADI-50024) Fab (Fab, V domains shown, Fab by papain digestion of the IgG1) VH: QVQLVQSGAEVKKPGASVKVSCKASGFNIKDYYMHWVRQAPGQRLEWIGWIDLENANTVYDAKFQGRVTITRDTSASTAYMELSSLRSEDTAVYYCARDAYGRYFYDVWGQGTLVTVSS VL: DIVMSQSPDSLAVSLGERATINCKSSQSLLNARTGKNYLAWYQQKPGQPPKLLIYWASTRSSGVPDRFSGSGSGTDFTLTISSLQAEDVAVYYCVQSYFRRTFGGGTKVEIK — recorded pKd = 9.24
